Target: T1, 4H446-AA
T1 chain: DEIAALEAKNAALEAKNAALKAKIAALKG
Assay: two-hybrid library CCmax;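 also: natural log of median RNA to DNA barcode read ratio; higher means stronger binding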
Settings: mean of both orientations
Parameter: interaction score. Scope: all listed entries.
# respond with the number and nothing more

Worked set:
- DKNAALKAENAALKAEIAALEAKIAALKG [4H3782-AA]: -1.07
- DEIAALEAENAALEAEIAALEAEIAALKG [4H130-AA]: 1.05
- DKIAALKAENAALKAEIAALEAKNAALKG [4H2760-AA]: -1.49
- DENAALKAEIAALEAENAALEAKIAALKG [4H1558-AA]: -0.543
- DEIAALEAENAALKAKIAALKAENAALEG [4H235-AA]: -1.78

Okay, now this binder:
Param item = DENAALEAKNAALEAKIAALKAKIAALKG [4H1454-AA] ; retrieve measured interaction score.
-1.96
